- Test system: HIV-1 LAV
- protocol-description: Infectivity of virions from treated HeLa-LAV cells on TZM indicator cells, luciferase assay
- Format: cell-based
measure-name: infectivity of viruses produced in the presence of compound

{"columns": ["compound", "result"],
 "data": [
  ["Cc1nc2c(c(-c3ccc4c(c3)CCCO4)c1C(OC(C)(C)C)C(=O)O)CCCC2 (centres unmarked) [MUT145509]", "non-infectious"],
  ["Cc1nc2c(-c3cccc(C(N)=O)c3)cccc2c(-c2ccc3c(c2)CCCO3)c1C(OC(C)(C)C)C(=O)O (centres unmarked) [MUT145227]", "non-infectious"],
  ["Cc1nc2cc(-c3cccnc3)ccc2c(-c2ccc3c(c2)CCCO3)c1C(OC(C)(C)C)C(=O)O (centres unmarked) [MUT145212]", "non-infectious"]
]}
